Tested on: MDA-MB-231
experiment.notes: NCI tumour cell line growth inhibition, 48 h
Calls of active or inactive are those of the source. Cut-off read from the data, not from the text of the source: active = GI50 up to about 1.1 µM and inactive = higher.
property.name: GI50

Some molecules with recorded GI50:
1. CCOC(=O)/C(=C\c1ccnc2ccccc12)P(=O)(OCC)OCC ... 2.11 µM (inactive)
2. CC(C)Oc1c(O)c2c3c(oc(=O)n3C=CC2c2ccccc2)c1OC(C)C (centres undefined) ... 30.3 µM (inactive)
3. CN(C)CCCNC(=O)c1cn2c(ccc3sc4ccccc4c(=O)c32)n1 ... 1.31 µM (inactive)
4. CN(C)CCCNC(=O)CCNC(=O)c1cc(NC(=O)c2cc(NC(=O)c3cc(NC(=O)c4nccn4C)cn3C)cn2C)cn1C ... > 100 µM (inactive)
5. OC1(c2ccccc2)CSC2=Nc3ccccc3C3CCN1N23 (centres undefined) ... 15.5 µM (inactive)
6. CCn1cc(C(=O)O)c(=O)c2cc(F)c(N3CCN(CN4C(=O)/C(=N\NC(=O)c5ccncc5)c5cc(Cl)ccc54)CC3)cc21 ... 52.7 µM (inactive)
7. O=C(OCC1CCCN2CCCCC12)c1cccnc1 (centres undefined) ... > 100 µM (inactive)
8. COC(=O)C1Cc2c(OC)ccc(OC)c2C(O)C1C(=O)OC (centres undefined) ... > 100 µM (inactive)

Okay, here is my list. What is GI50 for each of these?
1. COC(=O)C1=C(C(=O)OC)C2CCC1CC2=O (centres undefined)
2. CCCCCCCCCCCC[C@@H](O)[C@H]1CC[C@H]([C@H](O)CCCC[C@H](O)CCCCC[C@@H](O)CC2=C[C@H](C)OC2=O)O1
3. COc1ccc(N2C(=O)/C(=C\c3ccccc3)SC2c2cc(OC)c(OC)c(OC)c2)cc1 (centres undefined)
4. O=C1CC(=O)NC(NNS(=O)(=O)c2ccc(Cl)cc2)=N1
5. CCCNC(=O)c1cc(OC)c(OC)cc1NC(=O)C12CC3CC(CC(C3)C1)C2
6. Cc1ccsc1/C=N/Nc1nncc2ccccc12

1. > 100 µM (inactive)
2. 3.31 µM (inactive)
3. 88.5 µM (inactive)
4. > 100 µM (inactive)
5. 16.9 µM (inactive)
6. > 100 µM (inactive)

Source of measurements: ChEMBL document CHEMBL1201862
